system: A673/TR/shEF; test: cell viability (LOESS-normalised, relative to median of negative controls) (log2 ratio); higher = more viable cells (less compound effect), active = hit call of the paper (over 3 MAD below the median); settings: 0.25 µM; library screen: screen1; EWS-FLI1 expression: high (no doxycycline); treatment time: 72 h
Hit rate of the full screen: of about 3,200 compounds, about 300 (9.4%) showed activity. For the sample, actives were picked, then their nearest neighbours and some compounds at random.
Measured cell viability (log2) values are reported for all entries that follow.

Solved cases below.
[[record]]
molecule = "CN1C2CC3CC1[C@H](O)C2O3 (some centres not stated)"
data_value = "0.0139 (inactive)"

[[record]]
molecule = "Cc1ccccc1CN1CCN(Cc2ccc(F)cc2)CC1"
data_value = "0.0915 (inactive)"

[[record]]
molecule = "C[C@@H](N)[C@@H](O)c1ccccc1"
data_value = "0.199 (inactive)"

[[record]]
molecule = "COP(=O)(OC)OC(Br)C(Cl)(Cl)Br (configuration not stated)"
data_value = "0.05 (inactive)"

[[record]]
molecule = "O=P(O)(O)Cc1ccccc1"
data_value = "0.209 (inactive)"

[[record]]
molecule = "CC1(C)[C@H](C(=O)O[C@H](C#N)c2cccc(Oc3ccccc3)c2)[C@@H]1C=C(Br)Br"
data_value = "0.047 (inactive)"


Field cell viability (log2) (entry O=C(O)C1C2CCC(O2)C1C(=O)O (configuration not stated) ) reads 0.0769 (inactive)

* * *

test system: A673/TR/shEF; experiment: cell viability (LOESS-normalised, relative to median of negative controls) (log2 ratio); higher = more viable cells (less compound effect), active = hit call of the paper (over 3 MAD below the median); details: 0.25 µM; library screen: screen2; EWS-FLI1 expression: low (doxycycline-induced shRNA knockdown); treatment time: 72 h
Hit rate of the full screen: of about 3,200 compounds, about 300 (9.4%) showed activity. The entries come from a sample that favours actives as a whole.
Measured cell viability (log2) values are reported for all entries that follow.
Hey, just send me the number, nothing else.

[[record]]
molecule = "CN1CC[C@@]2(C)c3cc(O)ccc3N(C)C12 (stereo partly drawn)"
data_value = 0.0622


Here Cc1nccc2c1[nH]c1ccccc12 was tested on A673/TR/shEF, and its cell viability (log2) came to 0.0311

Here CC(C)Oc1cccnc1N(C)C1CCN(Cc2ccc(I)cc2)CC1 was tested on A673/TR/shEF, and its cell viability (log2) came to 0.0215

Here CCN(CC)C(=O)N[C@@H]1C[C@@H]2c3cccc4[nH]cc(c34)C[C@H]2N(C)C1 was tested on A673/TR/shEF, and its cell viability (log2) came to 0.0251

Here CC(=O)[C@H]1CC[C@H]2[C@@H]3CC[C@H]4C[C@H](O)CC[C@]4(C)[C@H]3C(=O)C[C@]12C was tested on A673/TR/shEF, and its cell viability (log2) came to 0.101

Here COc1cc(C[C@@H](C)N)c(OC)cc1I was tested on A673/TR/shEF, and its cell viability (log2) came to 0.0876

Here Cc1c2ccncc2c(C)c2c1[nH]c1ccccc12 was tested on A673/TR/shEF, and its cell viability (log2) came to 0.00884

Here Cc1cc([C@@H]2CCCN2C)on1 was tested on A673/TR/shEF, and its cell viability (log2) came to 0.135

This collection of values is drawn from the supplement of paper PMC6089552.
